tested on: CYPIR (Rice Flatsedge); assay: Preemergence weed control under flooded paddy conditions; assay type: in vivo, Cyperus iria; details: 0.1250 kg/ha, rated 3-4 weeks after treatment
// Herbicidal rating CYPIR lookup, one value per entry
Please give the numeric answer without any surrounding text.

CCOC(=O)CN1C(=O)C(CC(N)=O)S/C1=N/c1cc(-n2c(=O)cc(C(F)(F)F)n(C)c2=O)c(F)cc1Cl (stereo not shown) [Compound 56] = 0.0

Asked: Consider the compound CCOC(=O)CN1C(=O)C(Cc2ccccc2OC)SC1=Nc1cc(-n2c(=O)cc(C(F)(F)F)n(C)c2=O)c(F)cc1Cl (stereo not shown) [Compound 37] and give its measured Herbicidal rating CYPIR.
Given back: 0.0

Asked: Give the measured Herbicidal rating CYPIR of C[C@@H](C(=O)O)N1C(=O)CS/C1=N/c1cc(-n2c(=O)cc(C(F)(F)F)n(C)c2=O)c(F)cc1Cl [Compound 51] .
Given back: 3.0

Asked: Please report the recorded Herbicidal rating CYPIR for Cn1c(C(F)(F)F)cc(=O)n(-c2cc(N=C3SCC(=O)N3CC(=O)OC(C)(C)C)c(Cl)cc2F)c1=O [Compound 43] .
Given back: 4.0
